Source: the NIST ThermoML archive (doi:10.1016/j.jct.2010.06.009)

# PROTOCOL_NOTES: activity coefficient (dimensionless); of the first substance listed, at infinite dilution; xn = mol fraction of the nth substance listed
# REPORTED_CONDITIONS: 313.6 K; 101 kPa; Liquid; Chromatography; x1 = 0
MEASURED_PARAMETER: activity coefficient

{"COMPOUND": "C#CCCCCCC [1-octyne] + CCCCC[n+]1ccccc1.O=S(=O)([N-]S(=O)(=O)C(F)(F)F)C(F)(F)F", "QUANTITATIVE_RESULT": 5.47}
{"COMPOUND": "C#CCCCCC [1-heptyne] + CCCCC[n+]1ccccc1.O=S(=O)([N-]S(=O)(=O)C(F)(F)F)C(F)(F)F", "QUANTITATIVE_RESULT": 4}
{"COMPOUND": "CCCO [propan-1-ol] + CCCCC[n+]1ccccc1.O=S(=O)([N-]S(=O)(=O)C(F)(F)F)C(F)(F)F", "QUANTITATIVE_RESULT": 2.23}
{"COMPOUND": "C#CCCCC [1-hexyne] + CCCCC[n+]1ccccc1.O=S(=O)([N-]S(=O)(=O)C(F)(F)F)C(F)(F)F", "QUANTITATIVE_RESULT": 2.82}

====

# PROTOCOL_NOTES: activity coefficient (dimensionless); of the first substance listed, at infinite dilution; xn = mol fraction of the nth substance listed
# REPORTED_CONDITIONS: 312.8 K; 101 kPa; Liquid; Chromatography; x1 = 0
# Lookup of reported activity coefficient keyed by entry

{"COMPOUND": "CCc1ccccc1 [ethylbenzene] + CCCCC[n+]1ccccc1.O=S(=O)([N-]S(=O)(=O)C(F)(F)F)C(F)(F)F", "activity coefficient": 1.95}
{"COMPOUND": "C=CCCCC [hex-1-ene] + CCCCC[n+]1ccccc1.O=S(=O)([N-]S(=O)(=O)C(F)(F)F)C(F)(F)F", "activity coefficient": 5.46}
{"COMPOUND": "Cc1cccc(C)c1 [1,3-dimethylbenzene] + CCCCC[n+]1ccccc1.O=S(=O)([N-]S(=O)(=O)C(F)(F)F)C(F)(F)F", "activity coefficient": 1.8}
{"COMPOUND": "Cc1ccccc1 [toluene] + CCCCC[n+]1ccccc1.O=S(=O)([N-]S(=O)(=O)C(F)(F)F)C(F)(F)F", "activity coefficient": 1.3}
{"COMPOUND": "Cc1ccccc1C [1,2-dimethylbenzene] + CCCCC[n+]1ccccc1.O=S(=O)([N-]S(=O)(=O)C(F)(F)F)C(F)(F)F", "activity coefficient": 1.61}

====

# PROTOCOL_NOTES: activity coefficient (dimensionless); of the first substance listed, at infinite dilution; xn = mol fraction of the nth substance listed
# REPORTED_CONDITIONS: 313.2 K; 101 kPa; Liquid; Chromatography; x1 = 0
For each record, check the reported activity coefficient: if it is below 10 write rule met, else write rule not met.

{"COMPOUND": "Cc1ccccc1C [1,2-dimethylbenzene] + CC[n+]1ccccc1.O=S(=O)([N-]S(=O)(=O)C(F)(F)F)C(F)(F)F", "GROUP_LABEL": "rule met"}
{"COMPOUND": "C#CCCC [1-pentyne] + CC[n+]1ccccc1.O=S(=O)([N-]S(=O)(=O)C(F)(F)F)C(F)(F)F", "GROUP_LABEL": "rule met"}
{"COMPOUND": "C=CCCCCCCCC [1-decene] + CCCC[n+]1ccccc1.O=S(=O)([N-]S(=O)(=O)C(F)(F)F)C(F)(F)F", "GROUP_LABEL": "rule not met"}
{"COMPOUND": "Cc1cccc(C)c1 [1,3-dimethylbenzene] + CC[n+]1ccccc1.O=S(=O)([N-]S(=O)(=O)C(F)(F)F)C(F)(F)F", "GROUP_LABEL": "rule met"}
{"COMPOUND": "C#CCCCC [1-hexyne] + CC[n+]1ccccc1.O=S(=O)([N-]S(=O)(=O)C(F)(F)F)C(F)(F)F", "GROUP_LABEL": "rule met"}
{"COMPOUND": "C=CCCCCCC [oct-1-ene] + CC[n+]1ccccc1.O=S(=O)([N-]S(=O)(=O)C(F)(F)F)C(F)(F)F", "GROUP_LABEL": "rule not met"}
{"COMPOUND": "C=CCCCCCCCC [1-decene] + CC[n+]1ccccc1.O=S(=O)([N-]S(=O)(=O)C(F)(F)F)C(F)(F)F", "GROUP_LABEL": "rule not met"}
{"COMPOUND": "C#CCCCCC [1-heptyne] + CC[n+]1ccccc1.O=S(=O)([N-]S(=O)(=O)C(F)(F)F)C(F)(F)F", "GROUP_LABEL": "rule met"}
{"COMPOUND": "C#CCCCCCC [1-octyne] + CC[n+]1ccccc1.O=S(=O)([N-]S(=O)(=O)C(F)(F)F)C(F)(F)F", "GROUP_LABEL": "rule not met"}
